Data origin, for the record: PubChem BioAssay (NCI)

System: MDA-MB-468 breast
Assay: NCI-60 one-dose screen, 48 h (100 = growth as untreated, 0 = no growth, -100 = all killed)
Conditions: 10 µM unless noted
The panel holds about 83,000 compounds, 20% with a hit somewhere; the sample as a whole holds those more often.
Consider the following partition of reported growth into named classes: b0: < 20%; b1: ≥ 20% and < 80%; b2: ≥ 80%

## Input For CCOC(=O)c1ccc2c(c1)[n+](=O)c(C(=O)C1CCCS1)c(C(F)(F)F)n2[O-] (centres undefined) , which growth bin applies?
## Output b0

## Input Looking at COc1cc(Cn2c(-c3ccccc3)cc3c2-c2oncc2CC3)cc(OC)c1 , which class would you pick?
## Output b0

## Input Which class holds CC(=O)OC[C@H]1OC(Sc2sc(C(=O)c3ccc(Br)cc3)c(N)c2-c2nc3ccccc3s2)[C@H](OC(C)=O)[C@@H](OC(C)=O)[C@H]1OC(C)=O (some centres undefined) ?
## Output b2

## Input Into which bin does this compound go? O=C(NNC(=S)Nc1ccccc1)c1ccccn1
## Output b1

## Input For the record CC(C)(C)C(=O)Nc1nc2c(s1)CCc1ccn(S(=O)(=O)c3ccccc3)c1-2 , report the class its growth corresponds to.
## Output b2

## Input Entry Cn1ccc(=O)c(C(=O)Nc2nsc3ccc([N+](=O)[O-])cc23)c1 belongs to which category?
## Output b2

## Input Place this compound in its band: Nc1ccccc1NC(=O)c1ccc(CCCC(=O)Nc2ccc(C3CC3N)cc2)cc1 (centres undefined)
## Output b0

## Input Bin this entry: COc1ccc(C(c2cc(OC)c(OC)c(OC)c2)N2CCN(c3ccccc3)CC2)cc1 (centres undefined)
## Output b1

## Input Lab log: COc1cc(-c2cc(-c3ccc(Nc4ncnc5cc(Cl)ccc45)cc3)nc(N3CCN(C)CC3)n2)cc(OC)c1OC — assign growth category
## Output b2

## Input Quick check: band for N#CN1CC[C@H](C(=O)Nc2ncc(-c3ccccc3)s2)C1
## Output b0

## Input For this compound, which bin applies? CN1CCN(Cc2ccc(NC(=O)c3cncc(C#Cc4cnc(N)c5ccc(F)cc45)c3)cc2C(F)(F)F)CC1
## Output b0

## Input State the class of the compound shown: COCc1nc(NS(=O)(=O)c2ccc(N)cc2)nc(C)c1Br
## Output b2

## Input Bin? COc1cccc(/C=C/C(=O)c2cc3c(N)c(C(=O)Nc4ccccc4)sc3nc2C)c1
## Output b0

## Input Bin this entry: Cn1cc(-c2nc(-c3c[nH]c4ncc(F)cc34)cs2)c2cccnc21
## Output b0

## Input GET /class?item= O=C(Nc1cccc(-n2cc(-c3ccncc3)c(-c3ccc(O)c(Cl)c3)n2)c1)Nc1cccc(C(F)(F)F)c1
## Output b0

## Input Exercise: read the entry COc1cc(OC)cc(C(=O)Nc2cccc(C#Cc3cccc4[nH]nc(N)c34)c2)c1 and state which class it falls under.
## Output b1

## Input State the class of the compound shown: CCCCCCCC/C=C\CCCCCCCCOc1ccccc1CC(=O)NCC[N+]1(C)CCOCC1
## Output b1

----------
Tested on: OVCAR-5 ovarian
Assay: NCI-60 one-dose screen, 48 h (100 = growth as untreated, 0 = no growth, -100 = all killed)
Settings: 10 µM
Compounds without any hit were thinned out: in the full panel of roughly 83,000, 20% have a hit.
Field: growth. Provide a value for each of the compounds that follow.
Hi! Could you send only the number? It should be in %, unit omitted.

## Input Provide growth value for the following compound: O=C(CC(=O)Nc1ccc(Oc2ncnc3scc(Nc4n[nH]c(=S)s4)c23)cc1)Nc1ccc(Cl)cc1
## Output 79

## Input Item COc1ccc(C(=O)COc2ccc(NC(=O)Nc3ccc(Cl)c(C(F)(F)F)c3)cc2)cc1 : provide growth
## Output 67.7

## Input Please supply the value of reported growth for the item COc1ccc(-n2c(SCC(=O)NNS(=O)(=O)c3ccccc3)nc3ccc(Cl)cc3c2=O)cc1
## Output 102

## Input Given the compound Cc1cc(N=C2NC(=O)S/C2=C\c2ccc(F)cc2)n[nH]1 , write its reported growth.
## Output 31

## Input Please give measured growth of the following entry: CCn1c(SCC(=O)Nc2ccc(-c3nc4ccccc4[nH]3)cc2)nc2ccccc2c1=O
## Output -44.4

## Input Supply growth value. Item: Cn1cc(/C=C(/SS/C(=C/c2cn(C)c3cccc(C(=O)O)c23)C(=O)O)C(=O)O)c2c(C(=O)O)cccc21
## Output 105

## Input Name the recorded growth of the item COc1cc(C2CC(c3ccccc3)=Nc3c(N)nc(N)nc3N2)ccc1Oc1nc(NCCO)nc(N2CCOCC2)n1 (centres undefined) in your answer.
## Output 107

## Input Indicate the recorded growth value for this compound: COc1ccc(Cc2nn(CC(=O)N/N=C/c3ccc([N+](=O)[O-])cc3)c(=O)c3c(C)noc23)cc1
## Output 90.2

## Input Output measured growth for this item: Cn1cc(-c2cc(N)n3nc(-c4cn(C)c5ccccc45)cc3n2)c2cc(F)ccc21
## Output -52.6
